system: S. aureus (ATCC 29213); assay: MIC determination, broth microdilution; format: cell-based, Staphylococcus aureus; conditions: S. aureus ATCC 29213; MHB-II, inoculum 5 × 10^5 CFU/mL, 37 °C, 18–24 h, triplicate
Non-standard residues stand in square brackets, D forms with d. Residues, ends and D or L forms follow the SMILES beside them. *: point of attachment. Myristoyl = CCCCCCCCCCCCCC(=O)*
Metric: MIC SA (µg/mL)

{"Compound": "CCCCCCCCCCCCCC(=O)N[C@H](CCCCN)C(=O)N[C@H](CCCCN)C(=O)N[C@H](CC(C)C)C(=O)N[C@H](Cc1ccccc1)C(=O)N[C@H](CCCCN)C(=O)N[C@H](CCCCN)C(=O)N[C@@H](C(=O)N[C@H](CC(C)C)C(=O)N[C@H](CCCNC(=N)N)C(=O)N[C@H](Cc1ccc(O)cc1)C(=O)N[C@H](CC(C)C)C(N)=O)[C@H](C)CC [compound 6] (Myristoyl-[dK][dK][dL][dF][dK][dK][dI][dL][dR][dY][dL]-NH2)", "Target Or System": "S. aureus (ATCC 29213)", "Qualifier Operator": ">", "Observed": 64}
{"Compound": "CN[C@H](CC(C)C)C(=O)N[C@H]1C(=O)N[C@@H](CC(N)=O)C(=O)N[C@H]2C(=O)N[C@H]3C(=O)N[C@H](C(=O)N[C@H](C(=O)O)c4cc(O)cc(O)c4-c4cc3ccc4O)[C@H](O)c3ccc(c(Cl)c3)Oc3cc2cc(c3O[C@@H]2O[C@H](CO)[C@@H](O)[C@H](O)[C@H]2O[C@H]2C[C@](C)(N)[C@H](O)[C@H](C)O2)Oc2ccc(cc2Cl)[C@H]1O [Vancomycin, reference compound]", "Target Or System": "S. aureus (ATCC 29213)", "Qualifier Operator": "=", "Observed": 0.5}
{"Compound": "CCCCCCCCCCCCCC(=O)N[C@H](CCCCN)C(=O)N[C@H](CCCCN)C(=O)N[C@H](CC(C)C)C(=O)N[C@H](Cc1ccccc1)C(=O)N[C@H](CCCCN)C(=O)N[C@H](CCCCN)C(=O)N[C@@H](C(=O)N[C@H](CC(C)C)C(=O)N1CCCC[C@H](C(N)=O)NC(=O)[C@@H](Cc2ccc(O)cc2)NC(=O)[C@@H](CCCNC(=N)N)NC(=O)C1)[C@H](C)CC [compound 12]", "Target Or System": "S. aureus (ATCC 29213)", "Qualifier Operator": "=", "Observed": 8}
